Data provenance is patent US4665019A.

- Experimental target: canine kidney (Na^+ +K^+)ATPase (Canis lupus familiaris)
- Construct: suspending canine kidney (Na^+ +K^+)ATPase
- Protocol notes: (Na+ +K+)ATPase activity assay coupled to NADH oxidation (A340)
- Conditions: from steady-state levels of (Na^+ +K^+)ATPase activity at various vanadate concentrations, 37° C.
Value type: pKi
In textbook form, pKi equals minus log to base ten of the concentration in mol/L.

# query: pKi of entry [Na+].[Na+].[Na+].[O]=[V]([O-])([O-])[O-] [vanadate, Na3 VO4] 6.05
